method: endothelial E-selectin expression blockers – imaging, HUVEC, immunofluorescence, MLSMR starter and 10KST1 sets, primary screen (AID 487);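 further: signal is fraction of cell area covered by stained E-selectin grains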
assay-conditions: HUVEC TNFalpha-induced E-selectin immunofluorescence imaging, at 2 µM; hits give high values
Param threshold (-40%) applies to inhibition; output rule met when value >= threshold, rule not met when value < threshold.

> print(dat)
                                    molecule   group.label
 1  Cn1nc(C(C)(C)C)cc1C(=O)NCc1ccc(N2CCCC2=O)cc1      rule met
 2       COC(=O)c1ccc(CNC(=O)COc2ccccc2Br)o1      rule met
 3  Cc1onc(-c2ccccc2)c1C(=O)N1CCN(C(=O)c2ccco2)CC1      rule met
 4  O=C(NCC(=O)N(c1cccnc1)C(C(=O)NC1CCCCC1)c1cccnc1)c1ccco1 (stereo unspecified)      rule met
 5  CC(C)OC(=O)C1C2C=CC3(CN(Cc4cccs4)C(=O)C13)O2 (stereo unspecified)  rule not met
 6  O=C(OC1CCOC1=O)c1ccc2ccccc2n1 (stereo unspecified)      rule met
 7  Cn1c(=O)oc2cc(S(=O)(=O)NC3CCN(Cc4ccccc4)CC3)ccc21      rule met
 8  Cc1cc(OCC(=O)N2CCOCC2)cc2oc(=O)c3ccccc3c12      rule met
 9  COc1ccc(-c2cc(C(=O)NCc3ccc(Cl)cc3)no2)cc1OC      rule met
10                CC(=O)Nc1c(O)[nH]c2ccccc12      rule met
11  COc1ccccc1N1CCN(C(=O)CCNS(=O)(=O)c2ccc3c(c2)CCC(=O)N3)CC1      rule met
12     Cc1cc(C)n2c(SCC(=O)Nc3cc(C)on3)nnc2n1      rule met
13  O=C(O)c1[nH]c2ccc(Cl)cc2c1CC(=O)N1CCN(C(=O)c2ccco2)CC1  rule not met
14  CCCN(CCC)CCCNS(=O)(=O)c1ccc2c(c1)oc(=O)n2C  rule not met
15            O=C(Nc1nnc(C2CCCCC2)s1)c1cccs1  rule not met
16  COc1ccccc1NC(=O)CSc1nnc(Cn2nnc(-c3ccccc3)n2)n1-c1ccccc1  rule not met
17      CS(=O)(=O)N(CC(=O)NC1CC1)c1cccc(F)c1  rule not met
18             Cc1cc(C)n2cc(CSCc3ccco3)nc2n1      rule met
19  Cc1cc(NC(=O)CSc2nc3c(c(-c4cccnc4)c2C#N)CCC3)no1      rule met
20  C=CCNC(=O)C1CC(=O)N(c2ccc(OCC(=O)Nc3ccc(OC)cc3)cc2)C1 (stereo unspecified)  rule not met
21     COc1ccccc1-n1nnnc1SCc1cc2c(cc1Br)OCO2  rule not met
22  O=C(CC1(O)C(=O)Nc2ccccc21)c1ccc2c(c1)OCO2 (stereo unspecified)      rule met
23  CCOc1ccccc1NC(=O)N1C2CCCC1CC(NC(=O)C1CC1)C2 (stereo unspecified)  rule not met
24  COc1ccc(C2CC(c3ccc(C)cc3)Nc3ncnn32)cc1 (stereo unspecified)      rule met
25  O=C(CCn1c(=O)c2sccc2n(CC(=O)NCc2ccco2)c1=O)NCc1ccccc1  rule not met
26                  C(/CCc1ccccc1)=N\n1cnnc1      rule met
27  CC1Oc2ccccc2N(Cc2ccccc2Cl)C1=O (stereo unspecified)  rule not met
28  CCOCC(O)CS(=O)Cc1ccccc1 (stereo unspecified)      rule met
29  CC(C)(C)c1ccc(-c2nnc(SCCC#N)n2C2CCCC2)cc1      rule met
30  CN1C(=O)C(O)(CC(=O)c2ccc3c(c2)OCO3)c2ccccc21 (stereo unspecified)      rule met
31  CN(CC(=O)Nc1ccc(F)c(Cl)c1)S(=O)(=O)c1cccc2nsnc12      rule met
32  CNC(=O)CSc1nc2c(c(=O)n(C)c(=O)n2C)n1Cc1ccc(C)cc1      rule met
33   Cc1ccc2nc(NC(=O)Cn3cc4c(n3)CCCCC4)sc2c1  rule not met
34          CS(=O)(=O)N(CC(=O)O)c1cccc(Cl)c1  rule not met
35  Cc1ccc2nc3c(cc(C(=O)NCC4CCCO4)n3C)c(=O)n2c1 (stereo unspecified)      rule met
36  CCn1c(SCC(N)=O)nnc1-c1ccc(S(=O)(=O)N2CCN(C)CC2)cc1      rule met
37       O=C(Nc1sccc1C(=O)NCc1ccco1)c1cccnc1  rule not met
38           CCCCOc1cccc(NC(=O)CSc2nccn2C)c1      rule met
39  CCN1CCN(S(=O)(=O)c2ccc(S(=O)(=O)N(CC)Cc3ccccc3)cc2)CC1      rule met
40         Cc1cccc(C)c1NC(=O)COC(=O)c1nonc1N      rule met
41  O=C(Cc1cccs1)N(c1ccccc1)C1C=CS(=O)(=O)C1 (stereo unspecified)      rule met
42              C1CCN=C(Nc2nc3c(s2)CCCC3)CC1      rule met
43      O=C(COC(=O)c1cnccn1)Nc1ccc2c(c1)OCO2  rule not met
44  COc1ccc(S(=O)(=O)N(CCN2CCOCC2)Cc2cc(OC)ccc2OC)cc1  rule not met
45  O=C1c2ccccc2C(Nc2ccc3c(c2)OCCO3)N1Cc1ccco1 (stereo unspecified)  rule not met
46  Cc1onc(-c2ccccc2)c1C(=O)N1CCCSC1=Nc1ccccc1      rule met

###

method: blockers of RIG-like receptor reporter activation – cell-based, Sendai virus stimulus, luciferase, 10K MLSCN set, TLR/RLR signaling modifier project, primary screen (AID 602276);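 further: firefly luciferase from ISG56 promoter only with Renilla not read in this screen; 0% = Sendai virus plus DMSO and 100% = medium plus DMSO without virus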
assay-conditions: HEK293 RL24 IRF3 luciferase reporter, at 10 µM, hits give high values
measurement-type: inhibition (%)

> print(dat)
                                    compound  measured.result
 1  COc1ccc(NC(=O)c2oc3ccccc3c2NC(=O)c2ccco2)cc1            -10.3
 2  COc1ccc(C2C=C(c3ccccc3)Nc3ncnn32)cc1 (stereo unspecified)             5.64
 3    Clc1ccc(Cn2ncc3c(NCc4cccnc4)ncnc32)cc1             13.3
 4  CCCC1CCC(C(=O)Nn2c(C)nc3ccccc3c2=O)CC1 (stereo unspecified)             15.6
 5  CCC(C)NC(=O)CCNS(=O)(=O)c1ccc(Br)cc1 (stereo unspecified)             3.69
 6  CN(C)c1ccc(/C=C/C(O)=C2/C(=O)N(C)C3(C)CC2c2ccccc2O3)cc1 (stereo unspecified)              1.4
 7  CCc1cc2c(=O)c(-c3ccc4c(c3)OCCO4)coc2cc1OC(=O)c1ccco1            -45.7
 8          Nc1ccc(Sc2nnnn2-c2ccccc2)c(Cl)c1             8.66
 9                CC(=O)Nc1ccc(Cc2ccncc2)cc1             6.14
10  Cc1cc(NC(=O)CS(=O)(=O)c2cn(Cc3ccccc3Cl)c3ccccc23)no1             7.87
11  CCOC(=O)CSc1nc2cc(C(=O)NCc3ccco3)ccc2c(=O)n1C1CCCCC1             12.1

###

method: blockers of RIG-like receptor reporter activation – cell-based, Sendai virus stimulus, luciferase, 10K MLSCN set, TLR/RLR signaling modifier project, primary screen (AID 602276);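 further: firefly luciferase from ISG56 promoter only with Renilla not read in this screen; 0% = Sendai virus plus DMSO and 100% = medium plus DMSO without virus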
assay-conditions: HEK293 RL24 IRF3 luciferase reporter, at 10 µM, hits give high values
Entries and their inhibition
measurement-type: inhibition (%)

> print(dat)
                                    compound  measured.result
 1      Nc1nc(Nc2ccc(Cl)cc2Cl)nc(C(F)(F)F)n1            -32.5
 2  COC(=O)c1ccc2c(=O)n(NC(C)=O)c(=S)[nH]c2c1             2.98
 3  COCCn1nnnc1C(c1cc2ccc(OC)cc2[nH]c1=O)N1CCc2ccccc2C1 (stereo unspecified)             29.3
 4  COCCNC(=O)CN(C)S(=O)(=O)c1ccc2c(c1)OCCO2             11.9
 5                  CCCCOCCCNC(=O)COc1ccccc1             17.8
 6        Fc1cccc2sc(Nc3nnc(-c4ccco4)o3)nc12            -39.7
 7  COC(=O)CCC(NC(=O)c1cc(-c2ccc3c(c2)OCCO3)oc1C)C(=O)OC (stereo unspecified)            -2.55
 8  Cn1c(=O)[nH]c(=O)c2c1nc(N1CCc3ccccc3C1)n2CCSc1nc2ccccc2s1             19.3
 9       COc1ccccc1OCc1ccc(C(=O)Nc2ccncc2)o1             8.87
10  CCOC(=O)N1CCC(n2c(SCC(=O)NCc3ccco3)nc3ccsc3c2=O)CC1             4.14
11  O=C(NS(=O)(=O)c1ccc(NC(=O)C2CCCO2)cc1)c1ccccc1 (stereo unspecified)             11.4

Entry source: PubChem BioAssay
